Experiment: qHTS assay to identify small molecule antagonists of the retinoic acid receptor (RAR) signaling pathway (AID 1159552; also: nearly all actives have a fitted effect of over 50% in size)
Conditions: C3RL4 RARE luciferase reporter, retinol-stimulated, 6 h; series mostly up to 92.4 µM
Text: National Center for Advancing Translational Sciences [NCATS] NIH Chemical Genomics Center [NCGC] U.S. Environmental Protection Agency [EPA] National Institutes of Environmental Health Sciences [NIEHS] National Toxicology Program [NTP] U.S. Food and Drug Administration [FDA] […]
Inconclusive results are not listed. Activity calls are given as the source filed them. Calls follow the shape of the dose curve; as a rule, active = well fitted inhibition curve with a large enough effect in the repeat runs; inconclusive = weak or mixed curves, or effect the other way; inactive = no such curve, though single readings can be large or run the other way.
Allowed answers: active, inactive

Record excerpt, results attached:
compound: O=C(O)CCC(=O)C(=O)O
category.label: inactive

compound: CCCCN1CCCC1C(=O)Nc1c(C)cc(C)cc1C (configuration not stated)
category.label: inactive

compound: Cc1ccc(CO)cc1
category.label: inactive

compound: CCC1CO1 (configuration not stated)
category.label: inactive

compound: CCCCCCCC/C=C\CCCCCCCCO
category.label: inactive

compound: CC1(C)[C@@H](OC(=O)CCC(=O)O)CC[C@]2(C)[C@H]3C(=O)C=C4[C@@H]5C[C@@](C)(C(=O)O)CC[C@]5(C)CC[C@@]4(C)[C@]3(C)CC[C@@H]12
category.label: inactive

compound: CC(CCC(=O)O)C(=O)O (configuration not stated)
category.label: inactive

compound: COc1ccccc1NC(=O)c1cc2ccccc2cc1O
category.label: inactive

Exam item: Called result for CCCCCCCC/C=C\CCCCCCCCCCCC(=O)O
Marked response: inactive

====

test: qHTS assay for identifying genotoxic compounds that show differential cytotoxicity against isogenic chicken DT40 cell lines with known DNA damage response pathways - wild type cell line (AID 743012); conditions: DT40 wild type chicken cells viability, CellTiter-Glo, 40 h; series mostly up to 68.4 µM; also: nearly all actives have a fitted effect of over 60% in size
Results filed as inconclusive are left out. The source made the active and inactive calls. Calls follow the shape of the dose curve; as a rule, active = well fitted cell-killing curve with a large enough effect in the repeat runs; inconclusive = weak or mixed curves, or effect the other way; inactive = no such curve, though single readings can be large or run the other way.
Reply using exactly one outcome from active, inactive

molecule: O=C(O)CCc1nc(-c2ccccc2)c(-c2ccccc2)o1
category.label: inactive
--
molecule: O=C(Nc1cccc2c(=O)cc(-c3nn[nH]n3)oc12)c1ccc(OCCCCc2ccccc2)cc1
category.label: inactive
--
molecule: CC(O)c1ccccc1 (centres undefined)
category.label: inactive
--
molecule: CCOC(=O)OC(C)OC(=O)[C@@H]1N2C(=O)[C@@H](NC(=O)[C@H](N)c3ccccc3)[C@H]2SC1(C)C (some centres undefined)
category.label: inactive
--
molecule: CN1CC(=O)N2[C@H](c3ccc4c(c3)OCO4)c3[nH]c4ccccc4c3C[C@@H]2C1=O
category.label: inactive
--
molecule: COC(=O)C1=C(C)NC(C)=C(C(=O)O[C@@H]2CCCN(Cc3ccccc3)C2)[C@@H]1c1cccc([N+](=O)[O-])c1
category.label: active

Now for another entry.
Exam item: Hi, do you know how C[C@@H](O[C@H]1OCCN(Cc2n[nH]c(=O)[nH]2)[C@H]1c1ccc(F)cc1)c1cc(C(F)(F)F)cc(C(F)(F)F)c1 came out in this test?
Marked response: active

====

test: A CellTox Green Cytotoxicity Assay to monitor cytotoxicity in HEK293 cells - 32 hour (AID 1224881); conditions: CellTox Green fluorescence; series mostly up to 76.8 µM; also: nearly all actives have a fitted effect of over 40% in size
Records with an inconclusive call do not appear. Active and inactive are the calls of the source. Calls come from the whole dose curve; as a rule, active = well fitted activation curve with a large enough effect in the repeat runs; inconclusive = weak or mixed curves; inactive = flat fitted curve, though single readings scatter.
Answer with one of the outcomes t for active, f for inactive

compound: Cc1cc(=O)c2c(O)c3c(O)cc(=O)c4c3c3c(cc(O)c1c23)C(C)(C)C=4O
category.label: t

Exam item: Please share the test call associated with CC1(C)[C@H](C(=O)O)N2C(=O)C[C@H]2S1(=O)=O .
Marked response: f

Exam item: What is the recorded call for this compound in the test? O[C@@H]1CO[C@H]2[C@@H]1OC[C@@H]2O
Marked response: f

Exam item: Tell me the recorded outcome of this test for CN1CCCN=C1COC(=O)C(O)(c1ccccc1)C1CCCCC1 (stereo not drawn) .
Marked response: f

Exam item: Any idea what this test logged for CC(CC1c2ccccc2CCc2ccccc21)CN(C)C (stereo not drawn) ?
Marked response: f

Exam item: Record request — test call for C=C(C)[C@@H]1CCC2=CCC[C@@H](C)[C@]2(C)C1
Marked response: f

Exam item: Hi, sorry to bother you, what did the test record for C[C@@H]1CN(CCCn2c3ccccc3c3ccccc32)C[C@H](C)N1 ?
Marked response: t

Exam item: For N#[N+]c1ccc2c(S(=O)(=O)[O-])cccc2c1O , which call appears in the assay record?
Marked response: f

Exam item: For this compound, state the assay outcome: O=c1[nH]ncc2ccccc12
Marked response: f

Exam item: Dear all, I need the recorded test outcome for C=C1C[C@@]23CC[C@H]4[C@@](C)(CCC[C@@]4(C)C(=O)O[C@@H]4O[C@H](CO)[C@@H](O)[C@H](O)[C@H]4O)[C@@H]2CC[C@]1(O[C@@H]1O[C@H](CO)[C@@H](O)[C@H](O[C@@H]2O[C@H](CO)[C@@H](O)[C@H](O)[C@H]2O)[C@H]1O[C@@H]1O[C@H](CO)[C@@H](O)[C@H](O)[C@H]1O)C3 , thank you.
Marked response: f

Exam item: Could you kindly confirm the outcome this assay logged for O=C1Cc2ccccc2N1c1c(Cl)cccc1Cl ?
Marked response: f

Exam item: Test call for this compound, please: Oc1ccc(Cl)c2cccnc12
Marked response: f

Exam item: Just curious, what result did O=C1c2ccccc2C(=O)C1(O)O get here?
Marked response: f

Exam item: I'd appreciate the recorded outcome for CC(=O)c1cc2ccccc2s1 from this test.
Marked response: f

Exam item: What classification did O=C(/C=C/c1ccccc1)OCCc1ccccc1 end up with in this test?
Marked response: f

Exam item: Which result was noted for this compound in the test: CCC(C)COC(C)=O (stereo not drawn)
Marked response: f

Exam item: // outcome(item) with item = CCCCC(CC)CN (stereo not drawn)
Marked response: f

Exam item: Check the results log: what was the call for CC(C)(O)c1ccc(CNC(=O)c2cccnc2Oc2ccc3nonc3c2)cc1 ?
Marked response: f

Exam item: Please state the recorded outcome for this compound: CCCCCCC(C)(C)C(=O)O
Marked response: f

Exam item: Called result for CCCCCCCCCCC(=O)O
Marked response: f

Exam item: Returns: the outcome recorded for Cc1ccc(C(C)(C)O)cc1 in this assay.
Marked response: f

Exam item: # outcome recorded in this test, key = C[C@@H](O)[C@H]1C(=O)N2C(C(=O)O)=C([C@H]3CCCO3)S[C@H]12
Marked response: f

Exam item: Hello, I am checking results. What call was entered for C[C@]12CC[C@@H]3c4ccc(O)cc4CC[C@H]3[C@@H]1CC[C@@H]2OC(=O)CCC1CCCC1 ?
Marked response: t
